system: Enterococcus faecalis; experiment: Minimum inhibitory concentration against Streptococcus faecalis MGH-2 in vitro.; format: functional
Mark each entry Yes if its MIC sits below 0.05 µg/mL, and No for all others.

CNCC1CCN(c2c(F)cc3c(=O)c(C(=O)O)cn4c3c2OCC4C)C1 (stereo not given) = No

# TODO verify MIC < 0.05 µg/mL strictly for this compound: CCNCC1CCN(c2c(F)cc3c(=O)c(C(=O)O)cn(C4CC4)c3c2F)C1 (stereo not given)
Yes

Next compound up: CCNCC1CCN(c2c(F)cc3c(=O)c(C(=O)O)cn(C4CC4)c3c2Cl)C1 (stereo not given)
Yes

Next compound up: CC1COc2c(N3CCC(CN(C)C)C3)c(F)cc3c(=O)c(C(=O)O)cn1c23.Cl (stereo not given)
No

* * *

test system: Escherichia coli; experiment: Minimum inhibitory concentration against Escherichia coli vogel in vitro.; assay type: functional
For each of the molecules below, state its MIC.
One number for each entry, in mg/L.

Worked cases, MIC given:
CC(C)NCC1CCN(c2c(F)cc3c(=O)c(C(=O)O)cn4c3c2OCC4C)C1 (stereo not drawn) = 0.2
CN(C)CC1CCN(c2c(F)cc3c(=O)c(C(=O)O)cn(C4CC4)c3c2F)C1 (stereo not drawn) = 0.2

Could you now look at the following molecule, please?
Returns the measured MIC for the input molecule. Input: Cl.Cl.NC1CCN(c2cc3c(cc2F)c(=O)c(C(=O)O)cn3C2CC2)C1 (stereo not drawn)
0.025

* * *

test system: Escherichia coli; assay: Minimum inhibitory concentration against Escherichia coli H560 in vitro.; assay type: functional
Readout Name: MIC (µg/mL)
Give bare numbers, in µg/mL.

Worked cases, MIC given:
CNCC1CCN(c2c(F)cc3c(=O)c(C(=O)O)cn(C4CC4)c3c2N)C1.Cl (stereo not given) = 1.6
CN(C)CC1CCN(c2c(F)cc3c(=O)c(C(=O)O)cn(C4CC4)c3c2F)C1 (stereo not given) = 0.025
NCC1CCN(c2nc3c(cc2F)c(=O)c(C(=O)O)cn3C2CC2)C1 (stereo not given) = 0.025
Cl.Cl.NC1CCN(c2cc3c(cc2F)c(=O)c(C(=O)O)cn3C2CC2)C1 (stereo not given) = 0.006
CCNCC1CCN(c2cc3c(cc2F)c(=O)c(C(=O)O)cn3C2CC2)C1.Cl (stereo not given) = 0.05
CC(C)NCC1CCN(c2c(F)cc3c(=O)c(C(=O)O)cn(C4CC4)c3c2F)C1 (stereo not given) = 0.05

Please supply MIC for each of the following items, keeping them in order.
1. CNCC1CCN(c2nc3c(cc2F)c(=O)c(C(=O)O)cn3C2CC2)C1 (stereo not given)
2. NCC1CCN(c2c(F)cc3c(=O)c(C(=O)O)cn(C4CC4)c3c2F)C1 (stereo not given)
3. O=C(O)c1cn(C2CC2)c2c(F)c(N3CCNCC3)c(F)cc2c1=O
4. CNCC1CCN(c2c(F)cc3c(=O)c(C(=O)O)cn(C4CC4)c3c2F)C1 (stereo not given)

1. 0.05
2. 0.006
3. 0.025
4. 0.006

* * *

test system: Staphylococcus aureus; assay: Minimum inhibitory concentration against Staphylococcus aureus UC-76 in vitro.; assay type: functional
Readout Name: log10 of MIC (log10 of the value in µg/mL)
Recorded MIC (log10, µg/mL)

O=C(O)c1cn(C2CC2)c2cc(N3CCNCC3)c(F)cc2c1=O = -0.70
NCC1CCN(c2nc3c(cc2F)c(=O)c(C(=O)O)cn3C2CC2)C1 (centres undefined) = -2.22
CCNCC1CCN(c2c(F)cc3c(=O)c(C(=O)O)cn(C4CC4)c3c2Cl)C1 (centres undefined) = -2.52
CN(C)CC1CCN(c2nc3c(cc2F)c(=O)c(C(=O)O)cn3C2CC2)C1 (centres undefined) = -1.30
CC1COc2c(N3CCC(CN)C3)c(F)cc3c(=O)c(C(=O)O)cn1c23 (centres undefined) = -1.30

Please supply log10 of MIC for each of the following items, keeping them in order.
1. NCC1CCN(c2cc3c(cc2F)c(=O)c(C(=O)O)cn3C2CC2)C1 (centres undefined)
2. Cl.NC1CCN(c2c(F)cc3c(=O)c(C(=O)O)cn(C4CC4)c3c2[N+](=O)[O-])C1 (centres undefined)
3. CCNCC1CCN(c2nc3c(cc2F)c(=O)c(C(=O)O)cn3C2CC2)C1 (centres undefined)

-2.22
-0.70
-1.30

Please supply log10 of MIC for each of the following items, keeping them in order.
1. O=C(O)c1cn(C2CC2)c2c(Cl)c(N3CCNCC3)c(F)cc2c1=O
2. CN(C)CC1CCN(c2c(F)cc3c(=O)c(C(=O)O)cn(C4CC4)c3c2N)C1.Cl (centres undefined)
3. CN(C)CC1CCN(c2c(F)cc3c(=O)c(C(=O)O)cn(C4CC4)c3c2Cl)C1 (centres undefined)
4. CC(C)NCC1CCN(c2cc3c(cc2F)c(=O)c(C(=O)O)cn3C2CC2)C1.Cl (centres undefined)

[-1.30, -1.00, -2.22, -1.60]
